studyTarget: T1, cynomolgus monkey IL-33 expressed with a C-terminal hexahistidine tag (cynomolgus monkey)
T1 construct: also called MfIL-33-6His; Mf-IL-33-6His
T1 chain: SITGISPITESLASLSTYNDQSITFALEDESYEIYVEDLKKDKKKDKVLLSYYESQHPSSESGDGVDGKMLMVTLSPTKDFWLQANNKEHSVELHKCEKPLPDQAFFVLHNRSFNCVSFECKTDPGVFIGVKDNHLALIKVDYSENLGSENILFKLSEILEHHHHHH
protocolDetails: BLI; captured MfIL-33-6His, mAb-1 step with Buffer
Method: Binding competition between a panel of different anti-IL-33 monoclonal antibodies was determined using a real time, label-free bio-layer interferometry assay on an Octet® HTX biosensor (ForteBio, A Division of Pall Life Sciences). […] The real-time binding response was monitored during the experiment, and the maximum binding response for each binding step was recorded. […]
Listing of recorded mAb-2 Binding to the Pre-complex of mAb-1 & MfIL-33-6xHis by entry.
Report as a plain number; the unit nm is understood.

H4H9672P (antibody, human IgG4, V domains shown, Human IgG4 Fc (H4H)) VH: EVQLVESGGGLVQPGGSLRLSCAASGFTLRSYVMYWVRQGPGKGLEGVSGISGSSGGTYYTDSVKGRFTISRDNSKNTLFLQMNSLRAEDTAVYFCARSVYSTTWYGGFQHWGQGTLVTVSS VL: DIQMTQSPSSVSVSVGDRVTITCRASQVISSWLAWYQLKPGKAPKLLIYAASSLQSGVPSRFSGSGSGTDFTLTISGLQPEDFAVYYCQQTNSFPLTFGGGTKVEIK :: 0.3
H4H9666P (antibody, human IgG4, V domains shown, Human IgG4 Fc (H4H)) VH: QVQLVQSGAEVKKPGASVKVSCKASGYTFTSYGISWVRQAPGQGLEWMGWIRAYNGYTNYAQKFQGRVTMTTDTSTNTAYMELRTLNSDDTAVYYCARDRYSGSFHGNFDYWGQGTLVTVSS VL: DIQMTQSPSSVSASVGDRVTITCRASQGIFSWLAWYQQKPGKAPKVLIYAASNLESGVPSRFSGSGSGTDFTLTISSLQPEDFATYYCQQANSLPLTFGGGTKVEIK :: 0.32

binder H4H9665P (antibody, human IgG4, V domains shown, Human IgG4 Fc (H4H)) VH: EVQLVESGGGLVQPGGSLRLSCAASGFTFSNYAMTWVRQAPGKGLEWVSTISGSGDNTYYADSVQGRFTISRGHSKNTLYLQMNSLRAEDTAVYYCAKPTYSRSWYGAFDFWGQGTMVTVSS VL: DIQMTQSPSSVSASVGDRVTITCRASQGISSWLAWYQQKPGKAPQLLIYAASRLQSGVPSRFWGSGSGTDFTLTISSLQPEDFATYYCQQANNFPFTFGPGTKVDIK , mAb-2 Binding to the Pre-complex of mAb-1 & MfIL-33-6xHis observed: 0.33
